The following compounds are listed with their measured z-score values.
- Assay method text: PSAC antagonists in infected red cells, primary screen, cell-based, P. falciparum Indochina, OD700, 18 h (AID 1157)
- Run conditions: P. falciparum Indochina infected erythrocytes, osmotic lysis OD700, 18 h; higher = more signal, called active from +8 up or from −8 down
Provide a numeric answer; units are not to be included.

1) Cc1ccc(S[C@]2(C(=O)NC(C)C)CC(=O)N(C3Cc4ccccc4C3)[C@@H]2c2ccc(CO)cc2)cc1 = -1.88
2) C=C(COC)/C(=C/C[C@@H](OC(C)=O)c1cccc(OCCO)c1)c1cc(C(=O)OC)ccc1OC = -1.44

Entry CCCCCCc1nc(C2CC2)c(C)c2c1[Si](C(C)C)(C(C)C)OC2 has what z-score?
0.0166

Entry COCCOC(=O)N1C(=O)[C@@]2(c3cc(C#CC4=CCCCC4)ccc31)[C@H](C(=O)NC[C@H](O)c1ccccc1)[C@H]1C(=O)O[C@H](c3ccccc3)[C@H](c3ccccc3)N1[C@@H]2c1ccc(OCCO)cc1 has what z-score?
1.05

Entry CCCC[C@H]1OB(O)C[C@H]2C1=C(COC)C[C@H]1C(=O)N(Cc3ccccc3)C(=O)[C@H]12 has what z-score?
-2

Entry CCOC(=O)C1=CC[C@@H](c2ccc(-c3ccc(OCc4ccccc4)cc3)c(OC)c2)N(S(=O)(=O)c2ccc(C)cc2)[C@H]1c1ccccc1 has what z-score?
1.22

Entry C[C@H]1C2[C@H](Cc3ccccc3)NC(=O)[C@]23C(=O)N[C@H](Cc2ccccc2)C(=O)N[C@@H](Cc2ccccc2)C(=O)NC/C=C\C/C=C/C3[C@@H]2O[C@]12C (some centres not stated) has what z-score?
0.0094

----------
- Assay method text: FRG1 promoter luciferase signal modulators, primary screen, FRG1 inhibition for FSHD, cell-based, C2C12 myotubes, firefly/Renilla luciferase, luminescence (AID 1084)
- Run conditions: higher = more signal, called active from +8 up or from −8 down
The following compounds are listed with their measured z-score values.
Provide a numeric answer; units are not to be included.

Recorded results for 10 compounds are shown here.
1. Cc1ccc(S(=O)(=O)N[C@H]2COC(=O)CC=C[C@H](C)COC(=O)N[C@@H](C)C(=O)CC=C[C@@H]2C)cc1 = 0.502
2. CC(C)CN1C(=O)[C@@]2(Cc3ccccc31)c1ccccc1C(=O)N(C1CCCCC1)[C@H]2c1ccc(CO)cc1 = 0.172
3. CO[C@H]1COC(=O)[C@@H](OCc2ccccc2)C=C[C@H](C)[C@@H](OC)COC(=O)[C@H](OCc2ccccc2)C=C[C@@H]1C = -0.23
4. C=C(CCCC)C(=O)CC[C@@H](OC(C)=O)c1ccccc1OCCO = -2.26
5. C=CCNC(=O)[C@H]1[C@@H]2C(=O)O[C@@H](c3ccccc3)[C@@H](c3ccccc3)N2[C@@H](c2ccccc2OCCO)[C@]12C(=O)N(C(=O)OCCOC)c1ccc(C#CCNC(N)=O)cc12 = -1.53
6. C=C(C)[C@@H]1CC=C(C(O)C2C=CC3C(=O)NC(=O)C3N2Nc2ccccn2)CC1 (stereo partly drawn) = 1.65
7. O=C(NCC(F)(F)F)[C@@H]1c2ccccc2C(=O)N(Cc2ccccc2Cl)[C@H]1c1ccc(CO)cc1 = -1.3
8. CN(C)C(=O)[C@@]1(Cc2ccccc2N=[N+]=[N-])N=C(c2ccc(OCCCO)cc2)O[C@H]1c1ccccc1CN=[N+]=[N-] = -2.27
9. COC(=O)c1c(CC[C@@H](CO)NC(=O)N[C@H](Cn2cc(-c3cncn3C)nn2)C(C)C)oc(C(C)=O)c1C(=O)OC = 0.0938
10. COc1cccc([C@@H]2[C@@H](C)CC[C@H]3C(=O)N4[C@H](c5cccc(OC)c5)[C@@H](C)CC[C@H]4C(=O)N23)c1 = -1.21

Entry O=C(O)[C@@H]1Cc2c([nH]c3ccccc23)[C@@H](c2ccccc2)N1 has what z-score?
-0.608

Entry CO[C@H]1O[C@H](CO)[C@@H](OC(=O)Nc2ccc3c(c2)OCO3)[C@H](OC(=O)Nc2ccccc2)[C@@H]1OC(=O)Nc1ccccc1 has what z-score?
-1.6

----------
- System: PRMT1 (protein arginine N-methyltransferase 1)
- Assay method text: PRMT1 binders on small-molecule microarrays, primary screen, biochemical, small-molecule microarray, 635 nm fluorescence (AID 1088);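 further: binding of Prmt1 protein to compounds spotted on small-molecule microarray slides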
- Run conditions: small-molecule microarray binding, higher = more signal
Quantity: composite z-score
Provide a numeric answer; units are not to be included.

Recorded results for 10 compounds are shown here.
1. Cc1ccc(N2C(=O)c3ccccc3[C@@H](C(=O)NCC(F)(F)F)[C@@H]2c2ccc(CO)cc2)nc1 = -0.359
2. CC(C)N1CC=CC23O[C@@H]4/C=C\CCCOC(=O)C4[C@H]2C(=O)N(CCCCCO)[C@@H]3C1=O (stereo partly drawn) = -2.15
3. CO[C@H]1COC(=O)CC=C[C@H](C)[C@@H](OC)COC(=O)CC=C[C@@H]1C = 0.656
4. COc1ccc(C(=O)Nc2ccc(CN3C(=O)[C@]4(O[C@H](CCn5cc(CCO)nn5)[C@@H]([Si](C)(C)c5ccc(OC)cc5)[C@@H]4C)c4ccccc43)cc2)cc1 = 1.56
5. Cc1ccc(S[C@]2(C(=O)NCCN3CCOCC3)CC(=O)N(C3Cc4ccccc4C3)[C@@H]2c2ccc(CO)cc2I)cc1 = 1.01
6. CCC#CCN(Cc1ccccc1Br)[C@H](/C=C/c1ccccc1)[C@@H](O)Cc1ccccc1 = -0.394
7. C#CCCCON=C1C[C@@H](O)[C@@H](O)[C@@H]2[C@@H]3C(=O)N(Cc4ccc5c(c4)OCO5)C(=O)[C@@H]3CC[C@@H]12 = 0.652
8. C=C(COC)/C(=C/C[C@@H](OC(=O)c1ccncc1)c1ccc(OCCO)cc1)c1cc(C(=O)OC)ccc1OC = 1.57
9. COc1cc2c(cc1OC)CN(C(=O)[C@H]1[C@@H]3C(=O)O[C@@H](c4ccccc4)[C@@H](c4ccccc4)N3[C@@H](c3ccc(O)cc3)[C@]13C(=O)Nc1ccc(C#CC4(O)CCCCCC4)cc13)CC2 = 1.41
10. COCCOC(=O)N1C(=O)[C@@]2(c3cc(C#CC4=CCCCC4)ccc31)[C@H](C(=O)NC[C@H](O)c1ccccc1)[C@H]1C(=O)O[C@H](c3ccccc3)[C@H](c3ccccc3)N1[C@@H]2c1ccc(OCCO)cc1 = 1.54

Entry CN1CCC(CCCO)=CC1C1CC1 (stereo not drawn) has what composite z-score?
0.608

Entry CCOC(=O)C[C@H]1[C@H](OC(=O)Cc2ccc3c(c2)OCO3)[C@@H](NC(=O)c2ccc3ccccc3c2)c2cc(OCCCO)ccc2N1C(=O)Cc1ccc(OC)cc1 has what composite z-score?
0.842

Entry O=C1C[C@@](C(=O)NCCN2CCOCC2)(c2ccc([N+](=O)[O-])cc2)[C@@H](c2ccc(CO)cc2)N1C1CCCCC1 has what composite z-score?
1.55

Entry Cc1ccc(S[C@]2(C(=O)NC3CC3)CC(=O)N(Cc3cc(C(F)(F)F)cc(C(F)(F)F)c3)[C@@H]2c2ccc(CO)cc2)cc1 has what composite z-score?
1.55

Entry C=CCN(C(=O)C1N(c2ccc(CCO)cc2)C(=O)C2C(C(=O)O)C3C=CC21O3)C(C)(C)C (stereo not drawn) has what composite z-score?
-1.91

Entry COc1ccc(CCNC(=O)[C@@]2(c3ccc([N+](=O)[O-])cc3)CC(=O)N(C(C)C)[C@@H]2c2ccc(CO)cc2)cc1 has what composite z-score?
-0.383

Entry COc1ccc([Si](C)(C)[C@H]2[C@H](CCO)O[C@@]3(C(=O)N(Cc4ccccc4)c4ccc(N5C(=O)c6cccc7cccc5c67)cc43)[C@@H]2C)cc1 has what composite z-score?
0.491

----------
The following molecules are listed with their measured z-score values.
- Assay method text: CREB reporter modulators without forskolin, primary screen, cell-based, PC12, CRE-LacZ reporter, unstimulated (AID 1145)
- Run conditions: no forskolin, luminescence, 4.5 h, higher = more signal, called active from +8 up or from −8 down
Provide a numeric answer; units are not to be included.

Recorded results for 3 molecules are shown here.
1. CC(C)[Si](OCCCNS(=O)(=O)c1ccc(Br)cc1)(C(C)C)C(C)C = -0.752
2. C[C@]1(C(=O)NCc2ccccc2)c2ccccc2C(=O)N(Cc2cc(C(F)(F)F)cc(C(F)(F)F)c2)[C@H]1c1ccc(CO)cc1 = -0.735
3. COc1ccc([Si](C)(C)[C@@H]2[C@@H](CCO)O[C@]3(C(=O)N(Cc4ccccc4)c4ccccc43)[C@H]2C)cc1 = 0.0352

// switching to the query molecule
Entry COc1ccc(C(=O)Nc2ccc(CN3C(=O)[C@]4(O[C@H](CCn5cc(CCO)nn5)[C@@H]([Si](C)(C)c5ccc(OC)cc5)[C@@H]4C)c4ccccc43)cc2)cc1 has what z-score?
3.37
